System: MIA PaCa-2
Experiment: Cytostatic activity against human MIAPaCa2 cells after 72 hrs by MTS assay
Type: functional, cell-based
Settings: MIA PaCa-2, 72 h
Response field label: string, one of criterion met (IC50 strictly below 600 nM) or criterion not met.

Nc1ccn([C@@H]2O[C@H](CO)[C@@H](O)C2(F)F)c(=O)n1 [GEMCITABINE]    criterion not met

[Q] Dear reviewer, please state whether C[C@H](NP(=O)(OC[C@H]1O[C@@H](n2ccc(N)nc2=O)C(F)(F)[C@@H]1O)Oc1cccc2ccccc12)C(=O)OCc1ccccc1 (stereo partly specified) has IC50 strictly beneath 600 nM.
[A] criterion met

[Q] API: query returns whether the compound falls strictly under 600 nM in IC50. Query: C[C@H](NP(=O)(OC[C@H]1O[C@@H](n2ccc(N)nc2=O)C(F)(F)[C@@H]1O)Oc1ccccc1)C(=O)OCC(C)(C)C (stereo partly specified)
[A] criterion not met

[Q] Take the compound C[C@H](NP(=O)(OC[C@H]1O[C@@H](n2ccc(N)nc2=O)C(F)(F)[C@@H]1O)Oc1cccc2ccccc12)C(=O)OC1CCCC1 (stereo partly specified) and say whether its IC50 is less than 600 nM.
[A] criterion met

[Q] Hi there! Is IC50 for C[C@H](NP(=O)(OC[C@H]1O[C@@H](n2ccc(N)nc2=O)C(F)(F)[C@@H]1O)Oc1ccccc1)C(=O)OCc1ccccc1 (stereo partly specified) [FOSGEMCITABINE PALABENAMIDE] below 600 nM, do you know?
[A] criterion met

[Q] is_below(IC50, 600 nM) for CC(C)OC(=O)[C@H](C)NP(=O)(OC[C@H]1O[C@@H](n2ccc(N)nc2=O)C(F)(F)[C@@H]1O)Oc1ccccc1 (stereo partly specified) ?
[A] criterion not met

---

Assay: Half life in human hepatocytes at 1 uM
Type: ADME, cell-based, Hepatocyte
measured metric: half-life at 1 µM (h)
A number alone suffices; assume h.

[Q] Sample C[C@H](NP(=O)(OC[C@H]1O[C@@H](n2ccc(N)nc2=O)C(F)(F)[C@@H]1O)Oc1cccc2ccccc12)C(=O)OCc1ccccc1 (stereo partly specified) — what was its half-life at 1 µM?
[A] 1.32

---

Examples of molecules with documented pIC50 follow.
Tested on: BXPC-3
Assay: Cytostatic activity against human BxPC3 cells after 72 hrs by MTS assay
Assay type: functional, cell-based
Conditions: BXPC-3, 72 h
Scale note: pIC50 = -log10(concentration in M).

Examples from the recorded data:
C[C@H](NP(=O)(OC[C@H]1O[C@@H](n2ccc(N)nc2=O)C(F)(F)[C@@H]1O)Oc1cccc2ccccc12)C(=O)OC1CCCC1 (stereo partly specified)    6.82
Nc1ccn([C@@H]2O[C@H](CO)[C@@H](O)C2(F)F)c(=O)n1 [GEMCITABINE]    6.17
C[C@H](NP(=O)(OC[C@H]1O[C@@H](n2ccc(N)nc2=O)C(F)(F)[C@@H]1O)Oc1cccc2ccccc12)C(=O)OCc1ccccc1 (stereo partly specified)    6.62
C[C@H](NP(=O)(OC[C@H]1O[C@@H](n2ccc(N)nc2=O)C(F)(F)[C@@H]1O)Oc1ccccc1)C(=O)OCc1ccccc1 (stereo partly specified) [FOSGEMCITABINE PALABENAMIDE]    6.82

Shift focus to the following entry.
[Q] I am curious: what pIC50 value has been reported for C[C@H](NP(=O)(OC[C@H]1O[C@@H](n2ccc(N)nc2=O)C(F)(F)[C@@H]1O)Oc1ccccc1)C(=O)OCC(C)(C)C (stereo partly specified) ?
[A] 6.44
